biological target: UniProt Q04912; experiment: KINOMEscan competition binding; settings: compound 10.0 µM
Sequence (Q04912 whole entry, looked up): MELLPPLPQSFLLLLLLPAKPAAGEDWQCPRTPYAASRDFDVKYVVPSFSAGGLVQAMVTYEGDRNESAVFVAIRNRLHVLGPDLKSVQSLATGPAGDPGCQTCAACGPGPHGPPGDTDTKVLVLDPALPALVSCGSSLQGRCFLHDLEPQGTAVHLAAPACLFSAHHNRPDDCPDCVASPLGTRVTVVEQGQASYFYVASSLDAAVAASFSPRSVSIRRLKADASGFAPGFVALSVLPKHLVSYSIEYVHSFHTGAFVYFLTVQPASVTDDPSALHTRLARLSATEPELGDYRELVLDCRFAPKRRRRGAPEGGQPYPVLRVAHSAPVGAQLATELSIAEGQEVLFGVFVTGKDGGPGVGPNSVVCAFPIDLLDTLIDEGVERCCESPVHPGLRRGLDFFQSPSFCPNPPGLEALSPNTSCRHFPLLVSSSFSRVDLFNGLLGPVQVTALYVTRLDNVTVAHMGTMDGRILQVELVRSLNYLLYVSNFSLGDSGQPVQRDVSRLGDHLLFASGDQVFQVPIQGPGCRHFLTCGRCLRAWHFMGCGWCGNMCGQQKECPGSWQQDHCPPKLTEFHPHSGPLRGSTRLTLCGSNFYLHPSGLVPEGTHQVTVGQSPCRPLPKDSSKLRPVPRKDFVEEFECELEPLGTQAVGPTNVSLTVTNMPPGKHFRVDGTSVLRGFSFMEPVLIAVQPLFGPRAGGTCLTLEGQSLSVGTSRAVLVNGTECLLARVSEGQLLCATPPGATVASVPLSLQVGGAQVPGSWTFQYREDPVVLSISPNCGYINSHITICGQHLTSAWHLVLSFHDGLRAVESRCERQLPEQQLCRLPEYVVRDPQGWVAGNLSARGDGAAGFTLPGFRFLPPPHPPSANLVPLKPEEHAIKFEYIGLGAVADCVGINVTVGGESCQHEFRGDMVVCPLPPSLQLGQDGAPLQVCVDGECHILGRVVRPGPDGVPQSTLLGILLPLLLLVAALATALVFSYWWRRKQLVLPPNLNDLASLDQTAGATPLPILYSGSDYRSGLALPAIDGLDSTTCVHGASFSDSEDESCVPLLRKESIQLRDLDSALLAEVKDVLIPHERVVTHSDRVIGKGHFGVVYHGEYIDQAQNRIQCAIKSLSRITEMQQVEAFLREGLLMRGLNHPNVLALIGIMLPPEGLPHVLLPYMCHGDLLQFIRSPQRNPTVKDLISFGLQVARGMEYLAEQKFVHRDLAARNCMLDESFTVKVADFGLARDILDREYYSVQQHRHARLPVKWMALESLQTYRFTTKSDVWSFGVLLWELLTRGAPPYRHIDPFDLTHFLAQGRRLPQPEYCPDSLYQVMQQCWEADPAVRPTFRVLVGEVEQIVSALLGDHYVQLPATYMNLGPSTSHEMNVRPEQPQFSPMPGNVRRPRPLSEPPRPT
# kinase still bound, per cent of control per record follows
All answers are understood in %, so give the number only.

Past entries and their recorded results:
| molecule | kinase still bound, per cent of control (%) |
| --- | --- |
| COc1cc2c(Nc3ccc(NC(=O)c4ccccc4)cc3)ncnc2cc1OCCCN1CCOCC1 | 3.9 |
| CCN(CCO)CCCOc1ccc2c(Nc3cc(CC(=O)Nc4cccc(F)c4)[nH]n3)ncnc2c1 | 25 |

QUERY: Record lookup: for UniProt Q04912, what kinase still bound, per cent of control belongs to `N#C/C(=C1/Nc2ccccc2S1)c1ccnc(NCCc2cccnc2)n1` ?
RESULT: 100

QUERY: Record lookup: for UniProt Q04912, what kinase still bound, per cent of control belongs to CC1=C(C(=O)Nc2cc3cn[nH]c3cc2F)C(c2ccc(C(F)(F)F)cc2)CC(=O)N1 (centres undefined) ?
RESULT: 55

QUERY: Record lookup: for UniProt Q04912, what kinase still bound, per cent of control belongs to `COc1cc2ncnc(Nc3cccc(Cl)c3)c2cc1OC` ?
RESULT: 100

QUERY: Record lookup: for UniProt Q04912, what kinase still bound, per cent of control belongs to `CCc1nc(-c2cccc(C)c2)c(-c2ccnc(NC(=O)c3ccccc3)c2)s1` ?
RESULT: 88

QUERY: Record lookup: for UniProt Q04912, what kinase still bound, per cent of control belongs to `CCN1CCN(Cc2ccc(NC(=O)c3ccc(C)c(/C=C/c4cnc5[nH]ccc5c4OC)c3)cc2C(F)(F)F)CC1` ?
RESULT: 100

QUERY: Record lookup: for UniProt Q04912, what kinase still bound, per cent of control belongs to `CCOc1cc(N2CCC(O)CC2)ccc1Nc1ncc2c(n1)N(C)c1ccccc1C(=O)N2C` ?
RESULT: 100

QUERY: Record lookup: for UniProt Q04912, what kinase still bound, per cent of control belongs to `N#Cc1cc(-c2ccnc(Nc3ccc(-n4cnc(-c5cccnc5)n4)cc3)n2)cc(N2CCOCC2)c1` ?
RESULT: 100

###

molecular target: ACVR2A (human); test: KINOMEscan competition binding; conditions: compound 10.0 µM
# kinase still bound, per cent of control per record follows
All answers are understood in %, so give the number only.

QUERY: Suppose we examine the compound `N#C/C(=C1/Nc2ccccc2S1)c1ccnc(NCCc2cccnc2)n1` ; what kinase still bound, per cent of control value has been reported?
RESULT: 86

QUERY: Suppose we examine the compound `CCN(CCO)CCCOc1ccc2c(Nc3cc(CC(=O)Nc4cccc(F)c4)[nH]n3)ncnc2c1` ; what kinase still bound, per cent of control value has been reported?
RESULT: 100

QUERY: Suppose we examine the compound `Cc1cn(-c2cc(C(=O)Nc3ccc(C)c(NC(=O)c4ccno4)c3)cc(C(F)(F)F)c2)cn1` ; what kinase still bound, per cent of control value has been reported?
RESULT: 100

QUERY: Suppose we examine the compound `O=c1[nH]c2ccccc2n1C1CCN(Cc2ccc(-c3nc4cc5[nH]cnc5cc4nc3-c3ccccc3)cc2)CC1` ; what kinase still bound, per cent of control value has been reported?
RESULT: 88

###

target: RPS6KA2 KD2 (human); assay: KINOMEscan competition binding; settings: compound 10.0 µM
measurement name: kinase still bound, per cent of control (%)
All answers are understood in %, so give the number only.

| compound | target under test | kinase still bound, per cent of control (%) |
| --- | --- | --- |
| COc1ccc(N(C(=O)Oc2cc(C(=O)Nc3cccc(C(F)(F)F)c3)ccc2C)c2ccnc(Nc3ccc(N4CCN(C)CC4)cc3)n2)c(OC)c1 | RPS6KA2 KD2 (human) | 100 |
| COc1cc(N2CCC(C(N)=O)CC2)ccc1Nc1nc(N)c(Cl)c(Nc2ccccc2S(=O)(=O)C(C)C)n1 | RPS6KA2 KD2 (human) | 18 |
| CC(=O)c1c(C)c2cnc(Nc3ccc(N4CCNCC4)cn3)nc2n(C2CCCC2)c1=O | RPS6KA2 KD2 (human) | 26 |

QUERY: Suppose we examine the compound CC1=C(C(=O)Nc2cc3cn[nH]c3cc2F)C(c2ccc(C(F)(F)F)cc2)CC(=O)N1 (stereo not given) ; what kinase still bound, per cent of control value has been reported?
RESULT: 94

QUERY: Suppose we examine the compound `CCCS(=O)(=O)Nc1ccc(F)c(C(=O)c2c[nH]c3ncc(Cl)cc23)c1F` ; what kinase still bound, per cent of control value has been reported?
RESULT: 94
